Provenance of the data: paper PMC11302589

Each entry below carries its measured pIC50, system: Salmonella typhimurium sialidase (Salmonella typhimurium, UniProt P29768).
Sequence (P29768 whole entry): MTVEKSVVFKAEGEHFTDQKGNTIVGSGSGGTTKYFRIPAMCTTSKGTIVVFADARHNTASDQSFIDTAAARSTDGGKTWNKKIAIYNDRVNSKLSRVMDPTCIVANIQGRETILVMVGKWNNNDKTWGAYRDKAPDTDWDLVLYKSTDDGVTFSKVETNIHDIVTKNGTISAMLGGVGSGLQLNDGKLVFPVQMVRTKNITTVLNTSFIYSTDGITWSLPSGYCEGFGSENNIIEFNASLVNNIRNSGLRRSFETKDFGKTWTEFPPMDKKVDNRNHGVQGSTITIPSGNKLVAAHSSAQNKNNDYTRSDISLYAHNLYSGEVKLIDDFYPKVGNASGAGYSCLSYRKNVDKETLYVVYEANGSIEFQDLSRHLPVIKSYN
Lab note — pIC50 values are minus log10 of concentrations in M.

COC[C@@H](O)[C@@H](O)[C@@H]1OC(C(=O)O)=C[C@H](O)[C@H]1NC(C)=O : 3.89
[N-]=[N+]=NCC(=O)N[C@H]1[C@H]([C@H](O)[C@H](O)CN=[N+]=[N-])OC(C(=O)O)=C[C@@H]1O [Neu5AcN39N32en (5)] : 1.80
CCCNC[C@@H](O)[C@@H](O)[C@@H]1OC(C(=O)O)=C[C@H](O)[C@H]1NC(C)=O : 2.64

Please look at this compound and report its pIC50: CC(=O)N[C@H]1[C@H]([C@H](O)[C@H](O)CN=[N+]=[N-])OC(C(=O)O)=C[C@@H]1O [Neu5Ac9N32en (3)]
3.68
